Listed next: entries and their corresponding protein stability index.
B1: PCDHGA10 (parent)
chain: FGIEIEVTDINDNAPKFQAENLDV

variants of: B1; assay: protein stability index of a GFP-peptide fusion (GPS, HEK-293T) (PSI 1-6); higher = more stable; details: c terminus: a fixed tail appended;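 also: lentivirally expressed fusions sorted by FACS into six bins by GFP to DsRed ratio, PSI derived from sequencing read proportions per bin multiplied by bin number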
Answer using only a numeral; do not append any unit.

G2R :: 1.49
V24Q :: 3.62

Turning to the following variant.
// field: protein stability index; key: `D23T` ; value = 1.95
